# Assay Notes: Single-dose plasma pharmacokinetics of MK-8507 (suspension, study 1; tablet, study 2)
# Type: in vivo
# Condition Description: human, po, 800 mg, single oral dose 800 mg, tablet, fasted, n=6, read-out: C168hr (geometric mean [95% CI])
Readout Name: concentration at 168 h (nM)
Numbers only, in nM.

Input "N#Cc1cc(Cl)cc(Oc2c(C(F)(F)F)ncn(Cc3cc(C(F)(F)F)c(=O)[nH]n3)c2=O)c1" . Output concentration at 168 h: 2100

###

# Assay Notes: Multiple-dose (once weekly for 3 weeks) plasma pharmacokinetics of MK-8507 tablet
# Assay type: in vivo, human
# Condition Description: human, plasma, oral, 400 mg, 400 mg tablet once weekly, wk 1, n=6; read-out: AUC0–168 (geometric mean [95% CI])
Readout Name: AUC(0-t) (µM·h)
Numbers only, in µM·h.

Input "N#Cc1cc(Cl)cc(Oc2c(C(F)(F)F)ncn(Cc3cc(C(F)(F)F)c(=O)[nH]n3)c2=O)c1" . Output AUC(0-t): 563

###

# Assay Notes: Single-dose plasma pharmacokinetics of MK-8507 (suspension, study 1; tablet, study 2)
# Type: in vivo
# Condition Description: human, po, 30 mg, single oral dose 30 mg, suspension, fasted, n=6, read-out: AUC0–168 (geometric mean [95% CI])
Readout Name: AUC(0-t) (µM·h)
One number for each entry, in µM·h.

Input N#Cc1cc(Cl)cc(Oc2c(C(F)(F)F)ncn(Cc3cc(C(F)(F)F)c(=O)[nH]n3)c2=O)c1 [MK-8507] . Output AUC(0-t): 39.7

###

# Assay Notes: Multiple-dose (once weekly for 3 weeks) plasma pharmacokinetics of MK-8507 tablet
# Assay type: in vivo, human
# Condition Description: human, plasma, oral, 200 mg, 200 mg tablet once weekly, wk 3, n=5; read-out: C168hr (geometric mean [95% CI])
Readout Name: concentration at 168 h (nM)
Numbers only, in nM.

Input "N#Cc1cc(Cl)cc(Oc2c(C(F)(F)F)ncn(Cc3cc(C(F)(F)F)c(=O)[nH]n3)c2=O)c1" . Output concentration at 168 h: 720

###

# Assay Notes: Single-dose plasma pharmacokinetics of MK-8507 (suspension, study 1; tablet, study 2)
# Type: in vivo
# Condition Description: human, po, 800 mg, single oral dose 800 mg, tablet, fasted, n=6, read-out: AUC0–168 (geometric mean [95% CI])
Readout Name: AUC(0-t)

Input "N#Cc1cc(Cl)cc(Oc2c(C(F)(F)F)ncn(Cc3cc(C(F)(F)F)c(=O)[nH]n3)c2=O)c1" . Output AUC(0-t): 989 µM·h

###

# Assay Notes: Single-dose plasma pharmacokinetics of MK-8507 (suspension, study 1; tablet, study 2)
# Type: in vivo
# Condition Description: human, po, 2 mg, single oral dose 2 mg, suspension, fasted, n=6, read-out: AUC0-∞ (geometric mean [95% CI])
Readout Name: AUC(0-inf) (µM·h)
Answers are plain numbers, in µM·h.

Input "N#Cc1cc(Cl)cc(Oc2c(C(F)(F)F)ncn(Cc3cc(C(F)(F)F)c(=O)[nH]n3)c2=O)c1" . Output AUC(0-inf): 3.82

###

# Assay Notes: Multiple-dose (once weekly for 3 weeks) plasma pharmacokinetics of MK-8507 tablet
# Format: in vivo, human
# Condition Description: human, plasma, oral, 200 mg, 200 mg tablet once weekly, wk 1, n=5/6; read-out: C168hr (geometric mean [95% CI])
Readout Name: concentration at 168 h (nM)
One number for each entry, in nM.

Input "N#Cc1cc(Cl)cc(Oc2c(C(F)(F)F)ncn(Cc3cc(C(F)(F)F)c(=O)[nH]n3)c2=O)c1" . Output concentration at 168 h: 590
